Test: PSAC antagonists in infected red cells, primary screen, cell-based, P. falciparum Indochina, OD700, 2 h (AID 1155);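 also: lysis reports solute entry through the parasite surface anion channel PSAC; channel blockers reduce lysis of infected cells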
Conditions: P. falciparum Indochina infected erythrocytes, osmotic lysis OD700; higher = more signal, called active from +8 up or from −8 down
# cutoff 0.8 applies to z-score; >= gives TRUE, < gives FALSE

Problem: Determine whether this compound has z-score no lower than 0.8: Cc1ccc(S[C@]2(C(=O)NCCN3CCOCC3)CC(=O)N(C(C)C)[C@@H]2c2ccc(CO)cc2I)cc1
Solution: FALSE

Problem: Determine whether this compound has z-score no lower than 0.8: COCCOC(=O)N1C(=O)[C@@]2(c3ccccc31)[C@H](C(=O)Nc1nc3ccccc3s1)[C@H]1C(=O)O[C@H](c3ccccc3)[C@H](c3ccccc3)N1[C@@H]2c1ccccc1OCCO
Solution: TRUE

Problem: Determine whether this compound has z-score no lower than 0.8: CCOC(=O)C=C1C[C@@H](c2cccc([N+](=O)[O-])c2)O[C@@H](c2cccc([N+](=O)[O-])c2)O1
Solution: TRUE

Problem: Determine whether this compound has z-score no lower than 0.8: C=CC[C@@]1(C(=O)NCCCOC)N=C(c2ccc(OCCCO)cc2)O[C@@H]1c1ccccc1CN=[N+]=[N-]
Solution: TRUE

Problem: Determine whether this compound has z-score no lower than 0.8: COc1ccc([Si](C)(C)[C@@H]2[C@@H](CC(=O)N(CCO)Cc3ccccc3)O[C@]3(C(=O)N(Cc4cccc(I)c4)c4ccccc43)[C@H]2C)cc1
Solution: TRUE

Problem: Determine whether this compound has z-score no lower than 0.8: C=CCNC(=O)[C@@H]1[C@H]2C(=O)O[C@H](c3ccccc3)[C@H](c3ccccc3)N2[C@H](c2ccc(O)cc2)[C@@]12C(=O)Nc1ccc(C#CC3=CCCCC3)cc12
Solution: TRUE

Problem: Determine whether this compound has z-score no lower than 0.8: COc1ccc(C(=O)Nc2ccc(CN3C(=O)[C@]4(O[C@H](CC(=O)N(CCO)Cc5ccccc5)[C@@H]([Si](C)(C)c5ccc(OC)cc5)[C@@H]4C)c4ccccc43)cc2)cc1
Solution: TRUE

Problem: Determine whether this compound has z-score no lower than 0.8: C=C(CCCC)/C(=C/C[C@@H](OC(C)=O)c1cccc(OCCO)c1)c1cc(C(=O)OC)ccc1OC
Solution: TRUE

Problem: Determine whether this compound has z-score no lower than 0.8: Cc1ccc(S[C@]2(C(=O)NCc3ccccc3)CC(=O)N(Cc3ccccc3C(F)(F)F)[C@@H]2c2ccc(CO)cc2I)cc1
Solution: TRUE

Problem: Determine whether this compound has z-score no lower than 0.8: C[C@@]1([C@@H](NS(=O)(=O)c2cccc3cccnc23)c2ccc(-c3ccccc3)cc2)C[C@H]1C1CCCCC1
Solution: FALSE

Problem: Determine whether this compound has z-score no lower than 0.8: O=C1O[C@@H](c2ccccc2)[C@@H](c2ccccc2)N2[C@@H](c3ccc(OCCO)cc3)[C@]3(C(=O)Nc4ccc(C#CC5=CCCCC5)cc43)[C@@H](C(=O)Nc3nc4ccccc4s3)[C@H]12
Solution: TRUE

Problem: Determine whether this compound has z-score no lower than 0.8: C[N+](C)(C)CCCC[C@@H]1NC(=O)[C@H]2C[C@@H](C(=O)NCCCCCN)[C@@H](c3ccc(O)cc3)N2C1=O
Solution: FALSE

Problem: Determine whether this compound has z-score no lower than 0.8: COCCOC(=O)N1C(=O)[C@@]2(c3cc(C#CCNC(N)=O)ccc31)[C@H](c1ccc(O)cc1)N1[C@H](c3ccccc3)[C@H](c3ccccc3)OC(=O)[C@H]1[C@@H]2C(=O)N1CCc2cc(OC)c(OC)cc2C1
Solution: FALSE

Problem: Determine whether this compound has z-score no lower than 0.8: CN1C(=O)C2C(C1=O)C1C=C(CCCO)C2C(C2CC2)N1C (configuration not stated)
Solution: FALSE

Problem: Determine whether this compound has z-score no lower than 0.8: CC(C)C[C@@H]1NC(=O)[C@@H]2C[C@H](C(=O)NCCCCCCNC(=O)CS)[C@H](c3ccc(O)cc3)N2C1=O
Solution: FALSE

Problem: Determine whether this compound has z-score no lower than 0.8: CCCCC(=C=CC[C@H](O)c1ccccc1OCCO)CCO
Solution: FALSE

Problem: Determine whether this compound has z-score no lower than 0.8: CC(C)(C)OC(=O)CC[C@@]1(C(=O)N2CCOCC2)N=C(c2ccc(OCCCO)cc2)O[C@@H]1c1ccccc1CN=[N+]=[N-]
Solution: TRUE

Problem: Determine whether this compound has z-score no lower than 0.8: COCCOC(=O)N1C(=O)[C@@]2(c3cc(C#CCC(C(=O)OC)C(=O)OC)ccc31)[C@H](c1ccc(O)cc1)N1[C@H](c3ccccc3)[C@H](c3ccccc3)OC(=O)[C@H]1[C@@H]2C(=O)N1CCc2cc(OC)c(OC)cc2C1
Solution: FALSE

Problem: Determine whether this compound has z-score no lower than 0.8: O=C1OC[C@@H](c2ccccc2)n2cc(/C=C/c3ccccc3)cc21
Solution: FALSE

Problem: Determine whether this compound has z-score no lower than 0.8: O=C(CS)NCCCCCCNC(=O)[C@H]1C[C@H]2C(=O)NCC(=O)N2[C@H]1c1cccc(OCCO)c1
Solution: FALSE

Problem: Determine whether this compound has z-score no lower than 0.8: COC(=O)[C@@]1(Cc2ccc(F)cc2)[C@H]2c3cc(C(=O)N(C)C)n(Cc4cccc5ccccc45)c3C[C@H]2CN1C(=O)c1ccccc1
Solution: TRUE

Problem: Determine whether this compound has z-score no lower than 0.8: C=CCOC(=O)[C@@H]1[C@H]2C(=O)O[C@H](c3ccccc3)[C@H](c3ccccc3)N2[C@H](c2ccc(OCCOC(=O)[C@H]3C[C@H]4C(=O)N[C@@H](CCCCN(C)C)C(=O)N4[C@H]3c3cccc(OCCO)c3)cc2)[C@@]12C(=O)Nc1ccccc12
Solution: FALSE

Problem: Determine whether this compound has z-score no lower than 0.8: O=C1OCC=C[C@H]2OC34C=CCN(Cn5nnc6ccccc65)C(=O)[C@H]3N(CCO)C(=O)[C@@H]4[C@@H]12 (some centres not stated)
Solution: FALSE

Problem: Determine whether this compound has z-score no lower than 0.8: OCCCc1cc[n+](Cc2cc3c(cc2Br)OCO3)cc1
Solution: FALSE

Problem: Determine whether this compound has z-score no lower than 0.8: CC1C2C(CCCO)=CC(C3C(=O)N(C)C(=O)C23)N1Cc1cccc(OC(F)(F)F)c1 (configuration not stated)
Solution: TRUE

* * *

Experiment: basal MM1S mitochondrial membrane potential changes, profiling panel, cell-based, JC-1 fluorescence, 24 h, 100 nL compound (AID 1170); also: test concentration not given here
Conditions: higher = more signal
Record form. Attribute: z-score. Fill in for each entry.
# answer = number (no unit)

For record C=C(COC)C(=O)CC[C@H](OC(C)=O)c1ccccc1OCCO the listed z-score is -1.18

For record CC(C)c1ccc(NN2C(C(O)C3=C[C@H]4C[C@@H](C3)C4(C)C)C=CC3C(=O)N(c4ccccc4)C(=O)C32)cc1 (some centres not stated) the listed z-score is 0.758

For record CCCC[C@@H](O)C1=C(C)Cn2c(=O)n(-c3ccccc3)c(=O)n2[C@H]1CO the listed z-score is -0.804

For record CC(C)C[C@H]1NC(=O)CNC(=O)[C@@]23C(=O)N[C@@H](Cc4ccccc4)C2[C@H](C)[C@@]2(C)O[C@H]2C3/C=C/C/C=C\CNC1=O (some centres not stated) the listed z-score is -0.112

For record COc1ccc(-c2cc3c(c(CCc4ccccc4)n2)[Si](C(C)C)(C(C)C)O[C@H]3c2ccccc2)cn1 the listed z-score is -0.622

For record COc1ccc([Si](C)(C)[C@H]2[C@H](CC(=O)N(CCO)Cc3ccccc3)O[C@@]3(C(=O)N(Cc4cccc(N5CCCCC5=O)c4)c4ccccc43)[C@@H]2C)cc1 the listed z-score is -1.61

For record [N-]=[N+]=NCc1ccccc1[C@H]1OC(c2ccc(OCCCO)cc2)=N[C@@]1(CCS(=O)(=O)c1ccccc1)C(=O)NCCN1CCOCC1 the listed z-score is -0.801

* * *

Target: Calmodulin-1 (Homo sapiens) (UniProt P0DP23)
Assay: calcium-bound CALM1 binders on microarrays, profiling panel, artefact control for SMM control-protein annotation, biochemical, small-molecule microarray, Cy5-labelled CALM1, plus calcium (AID 1112);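 also: score merges spot fluorescence with signal to noise from triplicate slides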
Details: Cy5-CALM1 binding fluorescence, higher = more signal
Record form. Attribute: composite z-score. Fill in for each entry.
# answer = number (no unit)

Case C=CCC(OC(C)=O)[C@@H]1[C@@H](N(Cc2cccc3ccccc23)C(=O)c2ccc(C)cc2)c2cc(OCCCO)ccc2N1C(=O)Cc1ccc2ccccc2c1 (some centres not stated) , Calmodulin-1 (Homo sapiens) (UniProt P0DP23), composite z-score recorded as 0.709

Case COCCOC(=O)N1C(=O)[C@@]2(c3cc(C#CC4=CCCCC4)ccc31)[C@H](C(=O)N1CCCCCCC1)[C@H]1C(=O)O[C@H](c3ccccc3)[C@H](c3ccccc3)N1[C@@H]2c1ccccc1OCCO , Calmodulin-1 (Homo sapiens) (UniProt P0DP23), composite z-score recorded as 0.759

Case COc1cccc(C)c1NC(=O)O[C@H]1[C@H](OC(=O)Nc2ccc3c(c2)OCO3)[C@H](OC(=O)Nc2ccc3c(c2)OCO3)[C@@H](OC)O[C@@H]1CO , Calmodulin-1 (Homo sapiens) (UniProt P0DP23), composite z-score recorded as -0.406

Case CC(C)C[C@@H]1NC(=O)[C@@H]2C[C@H](C(=O)NCCCCCNC(=O)CS)[C@H](c3ccc(O)cc3)N2C1=O , Calmodulin-1 (Homo sapiens) (UniProt P0DP23), composite z-score recorded as 0.194

Case COC(=O)c1ccc(OC)c(/C=C\CC(OC(=O)c2ccncc2)c2ccccc2)c1 (configuration not stated) , Calmodulin-1 (Homo sapiens) (UniProt P0DP23), composite z-score recorded as 0.157

Case COc1cc(Cc2cc3c(c(-c4ccccc4)n2)[Si](C(C)C)(C(C)C)OC3)cc(OC)c1OC , Calmodulin-1 (Homo sapiens) (UniProt P0DP23), composite z-score recorded as -0.0062

Case CCCCC=C[C@@H](NC(=O)C(C)(C)C)c1ccccc1 , Calmodulin-1 (Homo sapiens) (UniProt P0DP23), composite z-score recorded as 0.113
